- ASSAY_COMMENT: Tissue distribution in SD rats after single subcutaneous injection
- Assay type: in vivo, SD rat
- PARTICULARS: male, SD, rat, small intestine, sc, 10 mg/kg
Peptide text beside a SMILES is read from it.
MEASURED_PARAMETER: tissue level at time at 2 h
Please report the result as a number followed by the unit.

Enquiry: Provide tissue level at time at 2 h value for the following compound: CC(C)[C@@H](NC(=O)[C@H](N)Cc1ccc(O)cc1)C(=O)N[C@H](CC(=O)O)C(=O)N[C@H](CCCCN)C(=O)N[C@H](CCCNC(=N)N)C(=O)O [FC-12738, (D-Tyr)-(D-Val)-(D-Asp)-(D-Lys)-(D-Arg)] (HELM PEPTIDE1{[dY].[dV].[dD].[dK].[dR]}$$$$V2.0)
Return: 775 ng/g
